Measured tissue uptake at 24 h by item
# procedure-summary: In vivo biodistribution and clearance in PC-3 tumor-bearing mice
# condition-description: male, NMRI-Foxn1 nu/nu, mouse, PC-3 tumor, iv, total radioactivity; 24 h p.i., i.v.; read-out: % uptake PC-3 tumor
Form entry: value (%ID/g) — number only.

CC(C)C[C@H](NC(=O)C[C@H](O)[C@H](CC(C)C)NC(=O)[C@H](Cc1c[nH]cn1)NC(=O)CNC(=O)[C@@H](NC(=O)[C@H](C)NC(=O)[C@H](Cc1c[nH]c2ccccc12)NC(=O)[C@H](CCC(N)=O)NC(=O)[C@@H](Cc1ccccc1)NC(=O)CN1CCC(NC(=O)CN2CCN(CC(=O)O)CCN(CC(=O)O)CCN(CC(=O)O)CC2)CC1)C(C)C)C(N)=O [[^177Lu]Lu-RM2, metal not drawn] ... 7.32

Summary for this compound, CC(C)CC(CC(C)C)NC(=O)[C@H](Cc1cnc[nH]1)NC(=O)CNC(=O)[C@@H](NC(=O)[C@H](C)NC(=O)[C@H](Cc1c[nH]c2ccccc12)NC(=O)[C@H](CCC(N)=O)NC(=O)[C@@H](Cc1ccccc1)NC(=O)COCC(=O)Nc1ccc(CNC(=O)CN2CCN(CC(=O)O)CCN(CC(=O)O)CCN(CC(=O)O)CC2)cc1)C(C)C [[^177Lu]Lu-NeoB, metal not drawn] : tissue uptake at 24 h is 8.05

Ref: paper PMC10611828
